Below, each entry is listed with its recorded MIC.
test system: Staphylococcus aureus; assay: Antibacterial activity against Staphylococcus aureus harboring DNA gyrase D83N mutant assessed as reduction in bacterial growth by CLSI based broth microdilution method; assay type: functional
measurement_label: MIC

>>> df
                                chem_smiles  obs_value
0  COc1ccc2ncc(F)c(CC[C@@]3(O)CO[C@@H]4[C@@H](NCc5ccc6c(c5)OCCO6)CO[C@@H]43)c2n1    4 µg/mL
1  COc1ccc2ncc(F)c(CC[C@H]3OC[C@H](NCc4ccc5c(c4)OCCO5)CO3)c2n1    4 µg/mL
2  COc1ccc2ncc(F)c(CC[C@@]3(O)CO[C@@H]4[C@@H](NCc5cc6c(cn5)OCCO6)CO[C@@H]43)c2n1    2 µg/mL
3  COc1ccc2ncc(F)c(CC[C@@]3(O)CO[C@@H]4[C@@H](NCc5ccc(Cl)c(Cl)c5)CO[C@@H]43)c2n1    4 µg/mL
4  COc1ccc2ncc(F)c(CC[C@@]3(O)CO[C@@H]4[C@@H](NCc5ccc(C)cc5)CO[C@@H]43)c2n1   16 µg/mL
5  COc1ccc2ncc(F)c(CC[C@@]3(O)CO[C@@H]4[C@@H](NCc5ccc6c(n5)NC(=O)CO6)CO[C@@H]43)c2n1    8 µg/mL

###

assay: Cytotoxicity against human HepaRG assessed as reduction in cell viability at 0.1 uM incubated for 24 hrs by Cell-Titer Glo assay; type: cell-based; conditions: HepaRG cells, read-out: INH
measurement_label: cytotoxicity at 24 h, 0.1 µM (%)

                                chem_smiles  unit  obs_value
0  COc1ccc2ncc(F)c(CC[C@@]3(O)CO[C@@H]4[C@@H](NCc5cc6c(cn5)OCCO6)CO[C@@H]43)c2n1     %          4

###

biological target: CYP2C9 (Homo sapiens); assay: Inhibition of human liver microsome CYP2C9 at 10 uM in presence of NADPH incubated for 10 to 30 mins by LC-MS-MS analysis; assay type: ADME; conditions: human liver microsomes, time 10-30 min
Sequence (P11712 whole entry): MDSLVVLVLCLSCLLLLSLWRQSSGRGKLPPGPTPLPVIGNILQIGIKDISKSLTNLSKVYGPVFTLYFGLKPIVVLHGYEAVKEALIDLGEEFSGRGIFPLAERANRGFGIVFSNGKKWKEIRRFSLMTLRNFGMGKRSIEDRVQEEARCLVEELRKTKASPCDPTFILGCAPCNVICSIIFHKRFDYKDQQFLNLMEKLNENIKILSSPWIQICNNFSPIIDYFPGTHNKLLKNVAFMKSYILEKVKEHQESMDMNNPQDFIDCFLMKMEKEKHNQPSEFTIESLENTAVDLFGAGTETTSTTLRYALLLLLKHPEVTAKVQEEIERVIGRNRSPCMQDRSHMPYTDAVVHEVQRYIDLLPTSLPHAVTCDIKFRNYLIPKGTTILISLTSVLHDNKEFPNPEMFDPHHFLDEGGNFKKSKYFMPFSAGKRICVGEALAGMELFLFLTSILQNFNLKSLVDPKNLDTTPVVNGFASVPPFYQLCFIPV
measurement_label: inhibition at 10 µM

>>> df
                                chem_smiles  obs_value
0  COc1ccc2ncc(F)c(CC[C@@]3(O)CO[C@@H]4[C@@H](NCc5cc6c(cn5)OCCO6)CO[C@@H]43)c2n1      < 50%

###

system: Staphylococcus aureus; test: Antibacterial activity against cystic fibrosis patient isolate Staphylococcus aureus assessed as reduction in bacterial growth by CLSI based broth microdilution method; type: functional
Below, each entry is listed with its recorded log10(MIC).
measurement_label: log10(MIC) (log10 of the value in µg/mL)

>>> print(df.to_string())
                                chem_smiles  measurement_label  obs_value
0  COc1ccc2ncc(F)c(CC[C@@]3(O)CO[C@@H]4[C@@H](NCc5ccc6c(n5)NC(=O)CO6)CO[C@@H]43)c2n1         log10(MIC)       0.30
1  COc1ccc2ncc(F)c(CC[C@@]3(O)CO[C@@H]4[C@@H](NCc5ccc(C)cc5)CO[C@@H]43)c2n1         log10(MIC)       0.30
2  COc1ccc2ncc(F)c(CC[C@@]3(O)CO[C@@H]4[C@@H](NCc5ccc6c(c5)OCCO6)CO[C@@H]43)c2n1         log10(MIC)       0.00
3  COc1ccc2nccc(CC[C@@]3(O)CO[C@@H]4[C@@H](NCc5ccc6c(c5)OCCO6)CO[C@@H]43)c2c1         log10(MIC)       1.20
4  COc1ccc2ncc(F)c(CC[C@@]3(O)CO[C@@H]4[C@@H](NCc5cc6c(cn5)OCCO6)CO[C@@H]43)c2n1         log10(MIC)       0.30
5  COc1ccc2ncc(F)c(CC[C@H]3OC[C@H](NCc4ccc5c(c4)OCCO5)CO3)c2n1         log10(MIC)      -0.60
6  COc1ccc2ncc(F)c(CC[C@@]3(O)CO[C@@H]4[C@@H](NCc5ccc(Cl)c(Cl)c5)CO[C@@H]43)c2n1         log10(MIC)      -0.30
